Examples of molecules with documented growth follow.
# System: HOP-62 NSCLC
# assay.text: NCI-60 one-dose screen, 48 h (100 = growth as untreated, 0 = no growth, -100 = all killed)
# measurement.parameters: 10 µM unless noted
The panel holds about 83,000 compounds, 20% with a hit somewhere; the sample as a whole holds those more often.
Give the quantity in %, number only.

For orientation, consider the following solved cases.
molecule: COc1ccc(-c2cnnn2-c2nonc2-n2cccc2)cc1OC
observation.type: growth
unit.abbrev: %
endpoint.result: 55.8
//
molecule: C=C1CCC2C3(C)COC(c4c(OC)cccc4OC)OC3CCC2(C)C1C/C=C1/C(=O)OCC1O (stereo not given)
observation.type: growth
unit.abbrev: %
endpoint.result: 104
//
molecule: COc1ccc2cc(-c3ccc(-c4ccc(C(=N)N)cc4)s3)ccc2c1
observation.type: growth
unit.abbrev: %
endpoint.result: 93.3

Challenge: I would be grateful if you could share the reported growth for C/C=C(\C)C(C(=O)NC1CCCCC1)N(C(=O)C1CCc2cc(F)ccc2O1)c1ccc(Cl)cc1 (stereo not given) .
Response given: 93.6

Challenge: Which growth value belongs to COC(=O)C(Sc1ccc(Cl)cc1)C1SC(=S)N(Cc2ccccc2)C1=O (stereo not given) ?
Response given: 95.1

Challenge: // lookup growth for Cc1ccc2nc(Cl)cc(=O)n2c1
Response given: 100

Challenge: Which measured growth value corresponds to N#Cc1c(-c2ccccc2)nc(SCC(=O)N2CCN(c3ccccc3)CC2)[nH]c1=O ?
Response given: 87.7

Challenge: // returns reported growth for input COc1ccc2c(c1)[nH]c(=O)c1c3cc(OC)ccc3cn21
Response given: 20

Challenge: Could you share which growth value was measured for COc1ccc(S(=O)(=O)NCCCNc2nccc(-c3c(-c4cccc([N+](=O)[O-])c4)nc4sccn34)n2)cc1 ?
Response given: 61

Challenge: Could you share which growth value was measured for N=C(N)c1ccc(-c2cc(Cl)cc(Cl)c2)cn1 ?
Response given: 91.6
